test system: 252836-082-R-J2-PDC tumor spheroids, viability; assay: Anticancer human tumor 252836-082-R-J2-PDC patient-derived head and neck squamous cell carcinoma cell line growth inhibition [PI3K]; conditions: second compound 10 µM; first compound 0.0316 µM; hits give low values; spheroids with HUVEC and MSC;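 note: spheroids exposed to agents for seven days before readout; percent of vehicle DMSO control viability so 100% = untreated growth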

[
  {
    "molecule": "CCCS(=O)(=O)Nc1ccc(F)c(C(=O)c2c[nH]c3ncc(-c4ccc(Cl)cc4)cc23)c1F + CC(Nc1ncnc2nc[nH]c12)c1cc2cccc(Cl)c2c(=O)n1-c1ccccc1",
    "measurementUnit": "%",
    "viability, T/C": 71.7
  },
  {
    "molecule": "CNC(=O)c1ccc(N2C(=S)N(c3ccc(C#N)c(C(F)(F)F)c3)C(=O)C2(C)C)cc1F + CC(Nc1ncnc2nc[nH]c12)c1cc2cccc(Cl)c2c(=O)n1-c1ccccc1",
    "measurementUnit": "%",
    "viability, T/C": 63
  },
  {
    "molecule": "Cn1ncnc1[C@H]1c2n[nH]c(=O)c3cc(F)cc(c23)N[C@@H]1c1ccc(F)cc1 + Cc1nc(NC(=O)N2CCCC2C(N)=O)sc1-c1ccnc(C(C)(C)C(F)(F)F)c1",
    "measurementUnit": "%",
    "viability, T/C": 21.9
  },
  {
    "molecule": "Cn1ncnc1[C@H]1c2n[nH]c(=O)c3cc(F)cc(c23)N[C@@H]1c1ccc(F)cc1 + CC(Nc1ncnc2nc[nH]c12)c1cc2cccc(Cl)c2c(=O)n1-c1ccccc1",
    "measurementUnit": "%",
    "viability, T/C": 46.5
  },
  {
    "molecule": "CC1(C)CCC(Nc2ncc(C(F)(F)F)c(-c3c[nH]c4c(P(C)(C)=O)c(C#N)ccc34)n2)CN1 (stereo unspecified) + Cc1nc(NC(=O)N2CCCC2C(N)=O)sc1-c1ccnc(C(C)(C)C(F)(F)F)c1",
    "measurementUnit": "%",
    "viability, T/C": 15.8
  },
  {
    "molecule": "Cn1nccc1Nc1nccc(-c2ccn(C(CO)c3ccc(Cl)c(F)c3)c(=O)c2)n1 (stereo unspecified) + Cc1nc(NC(=O)N2CCCC2C(N)=O)sc1-c1ccnc(C(C)(C)C(F)(F)F)c1",
    "measurementUnit": "%",
    "viability, T/C": 34.4
  },
  {
    "molecule": "CCCS(=O)(=O)Nc1ccc(F)c(C(=O)c2c[nH]c3ncc(-c4ccc(Cl)cc4)cc23)c1F + Cc1nc(NC(=O)N2CCCC2C(N)=O)sc1-c1ccnc(C(C)(C)C(F)(F)F)c1",
    "measurementUnit": "%",
    "viability, T/C": 39.7
  },
  {
    "molecule": "C=CC(=O)N1CCN(c2nc(=O)n(-c3c(C)ccnc3C(C)C)c3nc(-c4c(O)cccc4F)c(F)cc23)C(C)C1 (stereo unspecified) + Cc1nc(NC(=O)N2CCCC2C(N)=O)sc1-c1ccnc(C(C)(C)C(F)(F)F)c1",
    "measurementUnit": "%",
    "viability, T/C": 37.2
  },
  {
    "molecule": "CCN1CCN(Cc2ccc(Nc3ncc(F)c(-c4cc(F)c5nc(C)n(C(C)C)c5c4)n3)nc2)CC1 + CC(Nc1ncnc2nc[nH]c12)c1cc2cccc(Cl)c2c(=O)n1-c1ccccc1",
    "measurementUnit": "%",
    "viability, T/C": 65
  },
  {
    "molecule": "C#Cc1c(F)ccc2cc(O)cc(-c3ncc4c(N5CC6CCC(C5)N6)nc(OCC56CCCN5CC(F)C6)nc4c3F)c12 (stereo unspecified) + CC(Nc1ncnc2nc[nH]c12)c1cc2cccc(Cl)c2c(=O)n1-c1ccccc1",
    "measurementUnit": "%",
    "viability, T/C": 54.5
  },
  {
    "molecule": "C=CC(=O)N1CCN(c2nc(=O)n(-c3c(C)ccnc3C(C)C)c3nc(-c4c(O)cccc4F)c(F)cc23)C(C)C1 (stereo unspecified) + CC(Nc1ncnc2nc[nH]c12)c1cc2cccc(Cl)c2c(=O)n1-c1ccccc1",
    "measurementUnit": "%",
    "viability, T/C": 72.5
  }
]
